# Test system: F1*sub RNA substrate (template-directed ligation)
# assay_protocol: fraction ligated after 30 min (ligated reads / total reads); higher = more ligase activity; sequences stand for … in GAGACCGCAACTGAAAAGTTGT…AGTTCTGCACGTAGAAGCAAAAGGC
# conditions: 42 °C
measured_endpoint: fraction ligated

Example sequences with recorded fraction ligated:
{"sequence_chain": "TATCATTGTCGAAGACACTTGGATGGGTTGA [3d1207]", "fraction ligated": 0.771}
{"sequence_chain": "ATCACTTGTCGTAAGACCTTTGGATGGGTTA [3d244]", "fraction ligated": 0.645}
{"sequence_chain": "TAACTTGTCGAAGACACTTTGGATGGGTTGA [3d514]", "fraction ligated": 0.112}
{"sequence_chain": "TTCATTGCGTAAGACACTTTGGATGGGTTGA [3d319]", "fraction ligated": 0.11}
{"sequence_chain": "TACACTTGTCGTAGACACTTTGGATGGTTGA [3d669]", "fraction ligated": 0.524}

Please give fraction ligated, item by item, for the list that follows.
1. TATCATTTCGTAAGACACTTTGGATGGTTGA [3d1153]
2. TATCATTGTGTAGACACTTTGGATGGGTTGA [3d1174]
3. TATCACTTGTCGTAAGACACTTGGATGGGTTG [2d282]
4. TTCATTGTCGTAAGACACTTTGGATGGGTTG [3d335]
5. ATCACTTGTCTAAGACACTTTGGATGGTTGA [3d182]

Response given:
0.101
0.856
0.777
0.285
0.676

Hey, quick one: what's fraction ligated for each of these?
1. TATCATTGTCGTAAGCACTTTGGAGGGTTGA [3d1243]
2. TACACTTGTCGTAAACACTTTGGATGGGTTA [3d680]
3. TTCACTTGTCGTAGACACTTTGGATGGTTGA [3d439]
4. TATCACTTGTCGTAAGACACGGATGGGTTGA [3d2231]
5. TTCACTTGTGTAAGACACTTTGGATGGGTTA [3d400]
6. TATCACTTGTGAAGACACTTGGATGGGTTGA [3d1724]
7. TATCACTTGTCGTAAGACACTGGATGGGTTGA [2d276]
8. TATCACTTGTGAAGACACTTTGGATGGTTGA [3d1728]

Response given:
1. 0.0203
2. 0.00723
3. 0.57
4. 0.231
5. 0.132
6. 0.801
7. 0.776
8. 0.243

Take each entry in turn and give its fraction ligated.
1. TATCATTGTCTAAGAACTTTGGATGGGTTGA [3d1191]
2. TATCACTTGTCTAAGACATTTGGATGGGTTG [3d1877]

Response given:
0.803
0.824

The following sequences each have a reported value; give each one's fraction ligated.
1. ATCACTTGTCGTAAACACTTTGATGGGTTGA [3d215]
2. TATCACTTGTCGAAGAACTTTGGATGGGTTA [3d1941]
3. TTCACTTGTCGTAAGAATTTGGATGGGTTGA [3d462]
4. TATCATGTCGTAAGAACTTTGGATGGGTTGA [3d1130]
5. TATCACTTGTCGTAAGAACTTTGGGGGTTGA [3d2172]

Response given:
1: 0.521; 2: 0.779; 3: 0.693; 4: 0.848; 5: 0.0507
